Target: P2X7R point mutant F103A (Homo sapiens, UniProt Q99572, F103A/I21V/M24R/N16P/N25R/Q22R/R20V/S23N/T19I/Y26L)
Assay: cell-based
MEASURED_ATTRIBUTE: IC50 (nM)
Express the result in nM but write the number alone.

Task: Can you look up the measured IC50 of COc1ccc(CC(=O)NC(N=C(NC#N)Nc2cccc3ncccc23)C(C)(C)C)cc1OC (centres unmarked) [A740003] for me?
Output: 631

----------
Target: P2X7-2Nβ receptor (Homo sapiens, UniProt Q99572, I21V/M24R/N16P/N25R/Q22R/R20V/S23N/T19I/Y26L)
Sequence (Q99572 1-595 N16P/T19I/R20V/I21V/Q22R/S23N/M24R/N25R/Y26L): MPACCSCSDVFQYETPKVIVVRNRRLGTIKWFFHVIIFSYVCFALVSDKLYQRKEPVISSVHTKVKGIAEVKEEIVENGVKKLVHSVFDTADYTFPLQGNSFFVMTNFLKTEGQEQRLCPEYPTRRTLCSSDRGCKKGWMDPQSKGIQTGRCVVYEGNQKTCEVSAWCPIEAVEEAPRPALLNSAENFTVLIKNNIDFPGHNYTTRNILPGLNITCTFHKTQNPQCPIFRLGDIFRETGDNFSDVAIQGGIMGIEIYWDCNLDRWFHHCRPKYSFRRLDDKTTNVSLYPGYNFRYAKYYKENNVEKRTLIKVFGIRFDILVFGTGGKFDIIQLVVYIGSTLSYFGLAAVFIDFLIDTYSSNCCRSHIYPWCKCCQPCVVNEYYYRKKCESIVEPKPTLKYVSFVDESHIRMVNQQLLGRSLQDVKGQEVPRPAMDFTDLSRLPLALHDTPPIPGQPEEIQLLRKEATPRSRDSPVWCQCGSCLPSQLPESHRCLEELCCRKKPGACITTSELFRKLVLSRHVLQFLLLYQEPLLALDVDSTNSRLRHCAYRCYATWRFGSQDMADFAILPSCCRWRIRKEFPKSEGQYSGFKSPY
Experiment: Two-electrode voltage clamp of ATP-evoked currents in Xenopus oocytes
Details: inhibition of EC90 ATP response
MEASURED_ATTRIBUTE: IC50 (nM)
Give the quantity in nM, number only.

Task: Given COc1ccc(CC(=O)NC(N=C(NC#N)Nc2cccc3ncccc23)C(C)(C)C)cc1OC (stereo not shown) [A740003] , state its recorded IC50.
Output: 79.4
